target: T1, human IgE (human, UniProt P01854 1-428); experiment: ELISA, clone lysate on IgE-coated plate
T1 construct: written under the same molecule; also called IgE (Abcam ab65866); soluble IgE
T1 sequence (P01854 other isoform, or with tags, fused parts or gaps limits assumed, form in doubt): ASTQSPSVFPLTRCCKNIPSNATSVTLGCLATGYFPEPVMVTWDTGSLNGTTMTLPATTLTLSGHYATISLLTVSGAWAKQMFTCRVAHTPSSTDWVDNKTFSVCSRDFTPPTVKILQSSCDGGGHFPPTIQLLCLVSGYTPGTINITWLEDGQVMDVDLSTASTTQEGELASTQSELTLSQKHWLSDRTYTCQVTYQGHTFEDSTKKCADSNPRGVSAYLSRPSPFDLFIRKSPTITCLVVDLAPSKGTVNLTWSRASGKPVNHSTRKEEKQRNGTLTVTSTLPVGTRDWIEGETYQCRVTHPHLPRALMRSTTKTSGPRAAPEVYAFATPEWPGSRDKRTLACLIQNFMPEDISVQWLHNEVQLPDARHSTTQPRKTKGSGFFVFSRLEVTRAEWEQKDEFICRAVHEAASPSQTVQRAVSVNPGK
outcome measure: Confirm OD450 Duplicate2

binder	measured
3-1H1 (VHH, also called hzB10v40 VHH, CDR1 site 3 T to I) VHH: EVQLLESGGGEVQPGGSLRLSCVASGLIFSSYNMGWLRQAPGKEREFVGLSGSSSTSTYYAESVKGRFTISRDNAKNTVYLQMTSLRAEDTAVYYCAARRLLSTYWSDRSWDFWGQGTLVTVEP	0.559
6E11 (VHH, also called hzB10v40 VHH, CDR1 site 6 S to T) VHH: EVQLLESGGGEVQPGGSLRLSCVASGLTFSTYNMGWLRQAPGKEREFVGLSGSSSTSTYYAESVKGRFTISRDNAKNTVYLQMTSLRAEDTAVYYCAARRLLSTYWSDRSWDFWGQGTLVTVEP	0.468
6A9 (VHH, also called hzB10v40 VHH, CDR1 site 6 S to E) VHH: EVQLLESGGGEVQPGGSLRLSCVASGLTFSEYNMGWLRQAPGKEREFVGLSGSSSTSTYYAESVKGRFTISRDNAKNTVYLQMTSLRAEDTAVYYCAARRLLSTYWSDRSWDFWGQGTLVTVEP	0.488
4-1F11 (VHH, also called hzB10v40 VHH, CDR1 site 4 F to P) VHH: EVQLLESGGGEVQPGGSLRLSCVASGLTPSSYNMGWLRQAPGKEREFVGLSGSSSTSTYYAESVKGRFTISRDNAKNTVYLQMTSLRAEDTAVYYCAARRLLSTYWSDRSWDFWGQGTLVTVEP	0.483
